Assignment: determine reported inhibition at 1 µM for the given compounds.
measurement-target: hNAMPT protein (Homo sapiens (Human), UniProt P43490)
Sequence (P43490 whole entry): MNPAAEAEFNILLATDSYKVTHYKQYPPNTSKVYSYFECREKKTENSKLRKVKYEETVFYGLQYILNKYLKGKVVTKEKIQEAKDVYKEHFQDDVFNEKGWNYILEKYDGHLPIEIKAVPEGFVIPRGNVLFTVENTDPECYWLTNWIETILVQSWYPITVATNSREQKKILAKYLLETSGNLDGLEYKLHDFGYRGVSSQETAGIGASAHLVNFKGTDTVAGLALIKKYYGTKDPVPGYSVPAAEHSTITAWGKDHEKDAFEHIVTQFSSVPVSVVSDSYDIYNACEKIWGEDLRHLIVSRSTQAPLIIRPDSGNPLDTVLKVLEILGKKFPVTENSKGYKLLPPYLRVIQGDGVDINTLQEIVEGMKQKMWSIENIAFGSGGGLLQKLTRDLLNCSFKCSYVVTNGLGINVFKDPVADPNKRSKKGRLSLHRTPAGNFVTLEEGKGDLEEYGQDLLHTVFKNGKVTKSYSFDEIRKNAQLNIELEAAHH
test: NAMPT enzyme assay (TR-FRET/HTRF with BodiPY ligand)
Type: binding
stated-conditions: NAMPT inhibition at compound concentration 1 μM; read-out: Percent Inhibition
Note: unit % is implicit; provide only the numeric part.

Incoming: Data request, read-out inhibition at 1 µM, for COCCOc1cc(-c2ccc(F)cc2)nc2cc(C(=O)NCC(F)(F)Cc3nnc[nH]3)ccc12 [Compound I-81]
Outgoing: 67

Incoming: So what's the measured inhibition at 1 µM for this one? CCCc1nc(-c2ccc(Cl)cc2)nc2cc(C(=O)NCCCc3ncc[nH]3)ccc12 [Compound I-4]
Outgoing: 99

Incoming: Consider the compound CCOc1cc(-c2ccc(Cl)s2)nc2cc(C(=O)NCCCc3nnc[nH]3)ccc12 [Compound I-125] and give its measured inhibition at 1 µM.
Outgoing: 100

Incoming: Look up inhibition at 1 µM for this compound: CCOc1cc(-c2ccc(F)cc2)nc2cc(C(=O)NCc3nc(N)n[nH]3)ccc12 [Compound I-141]
Outgoing: 82

Incoming: I would be grateful if you could share the reported inhibition at 1 µM for CCOc1cc(-c2ccc(F)cc2)nc2cc(C(=O)NCC(F)(F)Cc3nnc[nH]3)ccc12 [Compound I-91] .
Outgoing: 80

Incoming: Please report the recorded inhibition at 1 µM for CCOc1cc(-c2ccnc(C)c2)nc2cc(C(=O)NCCc3nnc[nH]3)ccc12 [Compound I-172] .
Outgoing: 71

Incoming: Fill in: inhibition at 1 µM of CCOc1cc(-c2ccc(OC)nc2)nc2cc(C(=O)NCCCc3[nH]nnc3C)ccc12 [Compound I-93] is ___
Outgoing: 99

* * *

What viability at 1.667 µM was measured for each of the following?
Test system: PC3 cells
test: PC3 growth inhibition (Cell-titer glo, 72 hours)
Assay type: cell-based
stated-conditions: Homo sapiens, PC-3, 72 h, read-out: Percent Viability, PC3 cells, compound concentration 1.667 μM, 72 hours
Just the number please, in %, no unit attached.

Incoming: I would be grateful if you could share the reported viability at 1.667 µM for CCCc1nc(-c2ccc(Cl)s2)nc2cc(C(=O)NCCCc3ncc[nH]3)ccc12 .
Outgoing: 1

Incoming: Report viability at 1.667 µM for COCCOc1cc(-c2ccc(F)cc2)nc2cc(C(=O)NCCCc3cn[nH]n3)ccc12 please.
Outgoing: 2

Incoming: For the compound shown here, CCOc1cc(-c2ccc(=O)n(C)c2)nc2cc(C(=O)NCCCc3cc[nH]n3)ccc12 , give the reported viability at 1.667 µM.
Outgoing: 2

Incoming: What does the data say about its viability at 1.667 µM? Entry: CCOc1cc(-c2ccc(OC)nc2)nc2cc(C(=O)NCc3nc4cnccc4[nH]3)ccc12
Outgoing: 3

Incoming: Which viability at 1.667 µM reading was recorded for the compound O=C(NCCCc1nnc[nH]1)c1ccc2c(-n3ccnc3)cc(-c3ccc(F)cc3)nc2c1 ?
Outgoing: 1

Incoming: Request the reported viability at 1.667 µM associated with COc1cc(-c2nc(-c3ccc(F)cc3)nc3cc(C(=O)NCCCc4nnc[nH]4)ccc23)ccn1
Outgoing: 3

Incoming: Please give the measured viability at 1.667 µM for this compound: CCOc1cc(-c2ccc(Cl)s2)nc2cc(C(=O)NCCc3nnc[nH]3)ccc12
Outgoing: 3

Incoming: Give the measured viability at 1.667 µM of CCOc1cc(-c2ccc(F)cc2)nc2cc(C(=O)NCCCc3cc[nH]n3)ccc12 .
Outgoing: 2

Incoming: Reported viability at 1.667 µM for CCOc1cc(-c2ccc(C)nc2)nc2cc(C(=O)NCCc3nnc[nH]3)ccc12 : what is it?
Outgoing: 2

Incoming: Requested read-out: viability at 1.667 µM. Entry: CCOc1cc(-c2ccc(C)nc2)nc2cc(C(=O)NCCc3c[nH]nn3)ccc12
Outgoing: 3

Incoming: Report viability at 1.667 µM for CCOc1cc(-c2ccc(F)cc2)nc2cc(C(=O)NCc3ccc4ncnn4c3)ccc12 please.
Outgoing: 1

Incoming: // query viability at 1.667 µM value for entry CCOc1nc(-c2ccc(F)cc2)nc2cc(C(=O)NCC(C)Cc3ncc[nH]3)ccc12 (stereo not shown)
Outgoing: 0

Incoming: What value of viability at 1.667 µM has been reported for the following compound? CCOc1cc(-c2ccc(C)nc2OC)nc2cc(C(=O)NCCc3c[nH]nc3C)ccc12
Outgoing: 2

Incoming: # get_value(readout='viability at 1.667 µM', item= CCCc1nc(-c2ccc(Cl)cc2)nc2cc(C(=O)NCCCc3nnc[nH]3)ccc12 )
Outgoing: 1

Incoming: Give the measured viability at 1.667 µM of CCOc1cc(-c2ccnc(C)c2)nc2cc(C(=O)NCCCc3nnc[nH]3)ccc12 .
Outgoing: 1

// data source = patent US10323018B2
